Target sequence: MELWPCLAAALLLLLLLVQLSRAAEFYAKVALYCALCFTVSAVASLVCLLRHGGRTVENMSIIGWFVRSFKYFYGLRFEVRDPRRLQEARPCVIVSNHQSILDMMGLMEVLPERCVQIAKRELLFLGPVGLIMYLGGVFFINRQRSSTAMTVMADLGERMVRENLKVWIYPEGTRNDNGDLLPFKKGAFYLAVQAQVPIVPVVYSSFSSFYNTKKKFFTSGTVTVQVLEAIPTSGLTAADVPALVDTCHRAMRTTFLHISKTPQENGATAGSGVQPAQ
Outcome Measure: pIC50
pIC50 is a log-scale quantity: -log10 of the concentration expressed in molar.

Recorded pIC50 (compound CCOc1ccc(Cl)cc1-c1nc(N)nc(Nc2ccc(Cl)cc2)n1 ): 6.59
